Data credit: ChEMBL document CHEMBL4028834

- ASSAY_OVERVIEW: Antioxidant activity assessed as DPPH free radical scavenging activity incubated for 20 mins in dark
- Assay type: functional
The following ranges of IC50 define the classes used here: bucket A = under 900 µg/mL, bucket B = from 900 µg/mL up to 2000 µg/mL, bucket C = 2000 µg/mL and over

[Q] Any idea which band `CC(C)[C@@H]1CC[C@@H](C)C[C@@]12N(C)C(=O)[C@@H]1[C@H]3C(=O)N(c4ccc(Cl)cc4)C(=O)[C@H]3ON12` is in?
[A] bucket C

[Q] Any idea which band Cc1cc(C(C)(C)C)c(O)c(C(C)(C)C)c1 [BUTYLATED HYDROXYTOLUENE] is in?
[A] bucket A

[Q] Any idea which band `CC(C)[C@@H]1CC[C@@H](C)C[C@@]12N(C)C(=O)[C@@H]1[C@H]3C(=O)N(c4ccc5ccccc5c4)C(=O)[C@H]3ON12` is in?
[A] bucket C

[Q] Any idea which band `CC(C)[C@@H]1CC[C@@H](C)C[C@@]12N(C)C(=O)[C@@H]1[C@H]3C(=O)N(C)C(=O)[C@H]3ON12` is in?
[A] bucket B

[Q] Any idea which band `CC(C)[C@@H]1CC[C@@H](C)C[C@@]12N(C)C(=O)[C@@H]1[C@H]3C(=O)NC(=O)[C@H]3ON12` is in?
[A] bucket B

[Q] Any idea which band `COc1ccc(N2C(=O)[C@H]3[C@H](ON4[C@@H]3C(=O)N(C)[C@@]43C[C@H](C)CC[C@H]3C(C)C)C2=O)cc1` is in?
[A] bucket B

[Q] Any idea which band `Cc1cccc(N2C(=O)[C@H]3[C@H](ON4[C@@H]3C(=O)N(C)[C@@]43C[C@H](C)CC[C@H]3C(C)C)C2=O)c1` is in?
[A] bucket B

[Q] Any idea which band `Cc1ccc(N2C(=O)[C@H]3[C@H](ON4[C@@H]3C(=O)N(C)[C@@]43C[C@H](C)CC[C@H]3C(C)C)C2=O)c(C)c1` is in?
[A] bucket A

====

- ASSAY_OVERVIEW: Antioxidant activity assessed as reduction in beta-carotene/linoleic acid bleaching activity at 2.5 mg/ml after 2 hrs by spectrophotometric method (reference value: 1 to 8%)
- Type: functional
- Set-up: scale not given: the % may be the effect or the level left
PROPERTY: Activity (%)
# value in %; strip the unit string

[Q] Please give the documented Activity of `CC(C)[C@@H]1CC[C@@H](C)C[C@@]12N(C)C(=O)[C@@H]1[C@H]3C(=O)N(c4ccc(Cl)cc4)C(=O)[C@H]3ON12`
[A] 61.3

[Q] Please give the documented Activity of `COc1ccc(N2C(=O)[C@H]3[C@H](ON4[C@@H]3C(=O)N(C)[C@@]43C[C@H](C)CC[C@H]3C(C)C)C2=O)cc1`
[A] 59.3

[Q] Please give the documented Activity of `CC(C)[C@@H]1CC[C@@H](C)C[C@@]12N(C)C(=O)[C@@H]1[C@H]3C(=O)NC(=O)[C@H]3ON12`
[A] 38

[Q] Please give the documented Activity of `CC(C)[C@@H]1CC[C@@H](C)C[C@@]12N(C)C(=O)[C@@H]1[C@H]3C(=O)N(c4ccccc4)C(=O)[C@H]3ON12`
[A] 53.1

[Q] Please give the documented Activity of `CC(C)[C@@H]1CC[C@@H](C)C[C@@]12N(C)C(=O)[C@@H]1[C@H]3C(=O)N(C)C(=O)[C@H]3ON12`
[A] 57.2

[Q] Please give the documented Activity of `Cc1cccc(N2C(=O)[C@H]3[C@H](ON4[C@@H]3C(=O)N(C)[C@@]43C[C@H](C)CC[C@H]3C(C)C)C2=O)c1`
[A] 57.6

[Q] Please give the documented Activity of Cc1cc(C(C)(C)C)c(O)c(C(C)(C)C)c1 [BUTYLATED HYDROXYTOLUENE]
[A] 75.1

[Q] Please give the documented Activity of `Cc1ccc(N2C(=O)[C@H]3[C@H](ON4[C@@H]3C(=O)N(C)[C@@]43C[C@H](C)CC[C@H]3C(C)C)C2=O)c(C)c1`
[A] 65.6

[Q] Please give the documented Activity of `CC(C)[C@@H]1CC[C@@H](C)C[C@@]12N(C)C(=O)[C@@H]1[C@H]3C(=O)N(c4ccc5ccccc5c4)C(=O)[C@H]3ON12`
[A] 45.1

====

- ASSAY_OVERVIEW: Antioxidant activity assessed as ABTS radical scavenging activity at 2 mg/ml incubated for 2 hrs in dark by spectrophotometric analysis (reference value: 1 to 9%)
- Format: functional
Rule: Activity below 60% gives 1.0, anything at or above gives 0.0.

[Q] Hi there! Is Activity for Cc1c(C)c2c(c(C)c1O)CCC(C)(C(=O)O)O2 (centres undefined) below 60%, do you know?
[A] 0.0

[Q] Hi there! Is Activity for `COc1ccc(N2C(=O)[C@H]3[C@H](ON4[C@@H]3C(=O)N(C)[C@@]43C[C@H](C)CC[C@H]3C(C)C)C2=O)cc1` below 60%, do you know?
[A] 0.0

[Q] Hi there! Is Activity for `CC(C)[C@@H]1CC[C@@H](C)C[C@@]12N(C)C(=O)[C@@H]1[C@H]3C(=O)N(c4ccc(Cl)cc4)C(=O)[C@H]3ON12` below 60%, do you know?
[A] 1.0

[Q] Hi there! Is Activity for `CC(C)[C@@H]1CC[C@@H](C)C[C@@]12N(C)C(=O)[C@@H]1[C@H]3C(=O)NC(=O)[C@H]3ON12` below 60%, do you know?
[A] 1.0

[Q] Hi there! Is Activity for `CC(C)[C@@H]1CC[C@@H](C)C[C@@]12N(C)C(=O)[C@@H]1[C@H]3C(=O)N(c4ccccc4)C(=O)[C@H]3ON12` below 60%, do you know?
[A] 1.0

[Q] Hi there! Is Activity for `Cc1cccc(N2C(=O)[C@H]3[C@H](ON4[C@@H]3C(=O)N(C)[C@@]43C[C@H](C)CC[C@H]3C(C)C)C2=O)c1` below 60%, do you know?
[A] 1.0

[Q] Hi there! Is Activity for `CC(C)[C@@H]1CC[C@@H](C)C[C@@]12N(C)C(=O)[C@@H]1[C@H]3C(=O)N(c4ccc5ccccc5c4)C(=O)[C@H]3ON12` below 60%, do you know?
[A] 1.0

[Q] Hi there! Is Activity for `Cc1ccc(N2C(=O)[C@H]3[C@H](ON4[C@@H]3C(=O)N(C)[C@@]43C[C@H](C)CC[C@H]3C(C)C)C2=O)c(C)c1` below 60%, do you know?
[A] 0.0

====

- ASSAY_OVERVIEW: Antioxidant activity assessed as DPPH free radical scavenging activity at 2.5 mg/ml incubated for 20 mins in dark (reference value: 1 to 9%)
- Assay type: functional
Use y when the recorded Activity is no lower than 60%; use n when it is lower.

[Q] Kindly determine if Activity recorded for `CC(C)[C@@H]1CC[C@@H](C)C[C@@]12N(C)C(=O)[C@@H]1[C@H]3C(=O)N(c4ccc(Cl)cc4)C(=O)[C@H]3ON12` is above or exactly 60%.
[A] n

[Q] Kindly determine if Activity recorded for `COc1ccc(N2C(=O)[C@H]3[C@H](ON4[C@@H]3C(=O)N(C)[C@@]43C[C@H](C)CC[C@H]3C(C)C)C2=O)cc1` is above or exactly 60%.
[A] y

[Q] Kindly determine if Activity recorded for `Cc1ccc(N2C(=O)[C@H]3[C@H](ON4[C@@H]3C(=O)N(C)[C@@]43C[C@H](C)CC[C@H]3C(C)C)C2=O)c(C)c1` is above or exactly 60%.
[A] y

[Q] Kindly determine if Activity recorded for `Cc1cccc(N2C(=O)[C@H]3[C@H](ON4[C@@H]3C(=O)N(C)[C@@]43C[C@H](C)CC[C@H]3C(C)C)C2=O)c1` is above or exactly 60%.
[A] n

[Q] Kindly determine if Activity recorded for `CC(C)[C@@H]1CC[C@@H](C)C[C@@]12N(C)C(=O)[C@@H]1[C@H]3C(=O)N(c4ccc5ccccc5c4)C(=O)[C@H]3ON12` is above or exactly 60%.
[A] n

====

- ASSAY_OVERVIEW: Antioxidant activity assessed as DPPH free radical scavenging activity at 2.5 mg/ml incubated for 20 mins in dark (reference value: 1 to 9%)
- Type: functional
PROPERTY: Activity

[Q] Please give the documented Activity of `CC(C)[C@@H]1CC[C@@H](C)C[C@@]12N(C)C(=O)[C@@H]1[C@H]3C(=O)N(C)C(=O)[C@H]3ON12`
[A] 55.8%

[Q] Please give the documented Activity of `CC(C)[C@@H]1CC[C@@H](C)C[C@@]12N(C)C(=O)[C@@H]1[C@H]3C(=O)NC(=O)[C@H]3ON12`
[A] 67.2%

[Q] Please give the documented Activity of `CC(C)[C@@H]1CC[C@@H](C)C[C@@]12N(C)C(=O)[C@@H]1[C@H]3C(=O)N(c4ccccc4)C(=O)[C@H]3ON12`
[A] 76.2%

[Q] Please give the documented Activity of Cc1cc(C(C)(C)C)c(O)c(C(C)(C)C)c1 [BUTYLATED HYDROXYTOLUENE]
[A] 85.2%
